// data source = ChEMBL document CHEMBL5291721

- Target under test: Growth hormone secretagogue receptor type 1 (Homo sapiens); further: assay procedure not described here
- Sequence (Q92847 whole entry): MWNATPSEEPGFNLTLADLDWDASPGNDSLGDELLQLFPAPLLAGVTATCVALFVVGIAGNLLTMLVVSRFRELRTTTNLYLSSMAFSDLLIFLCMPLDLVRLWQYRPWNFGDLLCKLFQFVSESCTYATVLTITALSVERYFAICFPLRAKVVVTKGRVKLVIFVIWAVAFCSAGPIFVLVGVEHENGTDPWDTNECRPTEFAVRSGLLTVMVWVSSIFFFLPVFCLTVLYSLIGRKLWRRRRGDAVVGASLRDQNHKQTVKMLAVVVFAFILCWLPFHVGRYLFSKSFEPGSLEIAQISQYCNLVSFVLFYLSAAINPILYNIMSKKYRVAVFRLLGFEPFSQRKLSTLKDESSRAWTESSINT
Parameter measured: AC50

* Nc1nnc(-c2cccc(Cl)c2Cl)c(N)n1 [LAMOTRIGINE] | > 30 µM
* CCN(CC)Cc1nccn1-c1ccc([N+](=O)[O-])cc1C(=O)c1ccccc1Cl [NIZOFENONE] | > 30 µM
* Cc1ccc(-c2ncc(Cl)cc2-c2ccc(S(C)(=O)=O)cc2)cn1 [ETORICOXIB] | > 10 µM
* CN(C)CCc1c[nH]c2ccc(CS(=O)(=O)N3CCCC3)cc12 [ALMOTRIPTAN] | > 30 µM
* CCC(NC(C)C)C(O)c1ccc(O)c(O)c1 (stereo not given) [ISOETHARINE] | > 30 µM
